Form field: melting point (one value per entry).

Here are 4 compounds together with their reported answers.
QUERY SMILES: S=C1/C(=C/c2cc(Br)cs2)CC[C@@H]2[C@H]3CCCN4CCC[C@@H](CN12)[C@@H]34
melting point: 245.7 to 246.3 °C
--
QUERY SMILES: Cc1ccc(/C=C2\CC[C@@H]3[C@H]4CCCN5CCC[C@@H](CN3C2=S)[C@@H]45)s1
melting point: 186.2 to 187.4 °C
--
QUERY SMILES: S=C1/C(=C/c2ccc(Br)s2)CC[C@@H]2[C@H]3CCCN4CCC[C@@H](CN12)[C@@H]34
melting point: 239.9 to 240.6 °C
--
QUERY SMILES: S=C1/C(=C/c2ccsc2)CC[C@@H]2[C@H]3CCCN4CCC[C@@H](CN12)[C@@H]34
melting point: 166.8 to 167.5 °C

Memo: Cc1ccsc1/C=C1\CC[C@@H]2[C@H]3CCCN4CCC[C@@H](CN2C1=S)[C@@H]34 , reported melting point: 193.6 to 195 °C
